- Test system: CCRIS mutagenicity, Ames/micronucleus/aberration tests
- assay info: CCRIS mutagenicity studies
- conditions: Test System: AMES SALMONELLA TYPHIMURIUM; Strain/Indicator: TA100; Metabolic Activation: HAMSTER, LIVER, S-9, AROCLOR 1254 (10%); Method: PREINCUBATION
Calls of active or inactive are those of the source. How the calls were made is not given here.
Outcome field: choose from active, inactive

Record excerpt, results attached:
* CCCCCN(CCCCC)CCCCC | inactive
* C=CC(=O)OCCBr | active
* Nc1cc(S(=O)(=O)[O-])cc2c1C(=O)/C(=N\Nc1ccc(-c3ccc(N/N=C4\C(=O)c5c(N)cc(S(=O)(=O)[O-])cc5C=C4S(=O)(=O)[O-])c(O)c3)cc1O)C(S(=O)(=O)[O-])=C2.[Cu].[Cu].[Na+].[Na+].[Na+].[Na+] | inactive

Now examine the next entry.
Per the records of this test, what outcome belongs to "COC(=O)c1ccc(C)cc1" ? inactive
